B1: TRIM55 (parent)
chain: ICPICLEMFTKPVVILPCQHNLCR

variants of: B1; test: protein stability index of a GFP-peptide fusion (GPS, HEK-293T) (PSI 1-6); higher = more stable; conditions: c terminus: a fixed tail appended;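 further: lentivirally expressed fusions sorted by FACS into six bins by GFP to DsRed ratio, PSI derived from sequencing read proportions per bin multiplied by bin number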
Measured protein stability index, listed per entry for reference.

Mutation annotation	protein stability index
F9H	2.82
L22M	3.14
Q19W	1.61
P3Y	1.27
V14G	2.54
C23R	2.47
C5S	2.38
I4F	2.67
Q19L	1.84
V13G	2.84
C2D	1.96
